Would you mind telling me the reported pIC50 of each entry?
# Assay target: CIB1 and αIIb interaction (CIB1-GST : F-αIIb peptide) (Homo sapiens)
# Construct: made in house; host or cells: BL-21 plus RIL cells (E. coli)
# Sequence (Q99828 whole entry): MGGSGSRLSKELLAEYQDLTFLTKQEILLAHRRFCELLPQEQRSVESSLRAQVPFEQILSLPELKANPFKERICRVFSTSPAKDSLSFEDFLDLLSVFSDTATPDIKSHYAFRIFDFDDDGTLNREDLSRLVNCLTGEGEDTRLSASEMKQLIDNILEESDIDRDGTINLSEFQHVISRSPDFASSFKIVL
# Method: FP assay, 1536-well qHTS format (primary and confirmatory screen)
# Assay type: binding
# Test conditions: qHTS primary screen hits, Table S2; read-out: IC50
Scale explanation: pIC50 corresponds to minus log10 of a concentration expressed in moles per litre.

Request the reported pIC50 associated with Cc1cc(C)nc(NC(=S)N2CCN(c3ccc4nonc4c3)CC2)c1.O=C(O)C(F)(F)F [NCGC00244156-01]
4.30

Request the reported pIC50 associated with COc1cccc(CNc2ccc(S(=O)(=O)Nc3nc(-c4ccccc4)cs3)cc2)c1O.O=C(O)C(F)(F)F [NCGC00346865-01]
4.30

Request the reported pIC50 associated with O=C1CCCC2=C1C(c1n[nH]cc1Br)N=C(Nc1nc3ccccc3o1)N2 (centres unmarked) [NCGC00229723-01]
4.30

Request the reported pIC50 associated with CN(C)c1cccc(-c2cnc(N3CCC(c4ncc[nH]4)CC3)s2)c1.O=C(O)C(F)(F)F [NCGC00187899-01]
4.10

Request the reported pIC50 associated with NS(=O)(=O)c1ccc(Cc2c(-c3ccc(F)c(-c4ccc(F)cc4)c3)nn(-c3nc(C(=O)O)cs3)c2C2CC2)cc1F.O=C(O)C(F)(F)F [NCGC00381623-01]
4.40

Request the reported pIC50 associated with CCc1c(-c2ccccc2)c(-c2ccccc2)nn1-c1ccccc1-c1cccc(OCC(=O)O)c1 [NCGC00387254-02]
4.25

Request the reported pIC50 associated with CC(=O)[C@]1(O)Cc2c(O)c3c(c(O)c2[C@@H](O[C@H]2C[C@H](N)[C@H](O)[C@H](C)O2)C1)C(=O)c1ccccc1C3=O [NCGC00093976-06]
4.72

Request the reported pIC50 associated with OCCCc1ccccc1 [NCGC00165987-03]
4.25

Request the reported pIC50 associated with NS(=O)(=O)c1ccc(Cc2cn(-c3nc(C(=O)O)cs3)c3ncccc23)cc1 [NCGC00356703-01]
4.35

Request the reported pIC50 associated with Cc1cc(N2CCN(c3ccccc3)CC2)nc(-n2nc(C)cc2C)n1.O=C(O)C(F)(F)F [NCGC00067399-02]
4.25

Request the reported pIC50 associated with Cc1cc(O)c2c(c1)C(=O)c1cc(O)cc(O)c1C2=O [NCGC00015420-08]
5.00

Request the reported pIC50 associated with CCN(CC)C(=O)N[C@@H]1C=C2c3cccc4[nH]cc(c34)C[C@@H]2N(C)C1 [NCGC00179663-03]
4.30

Request the reported pIC50 associated with Cc1ccc(S(=O)(=O)Nc2ccc(O)c3ccccc23)c(C)c1.O=C(O)C(F)(F)F [NCGC00273983-01]
4.25

Request the reported pIC50 associated with CC1CCC2(C1)N=C(Nc1nc3ccccc3o1)NC1=C2C(=O)CCC1.O=C(O)C(F)(F)F (centres unmarked) [NCGC00188039-01]
4.50

Request the reported pIC50 associated with S=C(SSC(=S)N1CCCCC1)N1CCCCC1 [NCGC00181776-02, dipentamethylenethiuram disulfide]
4.55

Request the reported pIC50 associated with O=C1C=CC(=O)N1c1ccc(N2CCOCC2)cc1 [NCGC00373122-01]
4.55

Request the reported pIC50 associated with O=C(Cc1ccc(Cl)c(Cl)c1)Nc1ccc(S(=O)(=O)Nc2ccon2)cc1.O=C(O)C(F)(F)F [NCGC00244858-03]
5.49

Request the reported pIC50 associated with CN(CC(=O)Nc1ccc(N2CCOCC2)cc1)Cc1c(O)ccc2ccccc12.O=C(O)C(F)(F)F [NCGC00229682-01]
4.40

Request the reported pIC50 associated with CN(C)CCCNc1cc(O)c2ncccc2c1.O=C(O)C(F)(F)F [NCGC00183792-01]
4.25

Request the reported pIC50 associated with CC(=O)[O][Hg][c]1ccccc1 [NCGC00091050-09]
5.10
